Assay: Pharmacokinetic test in rats, intravenous injection
Type: in vivo, SD rats
Conditions: male, SD, rat, plasma, intravenous, 2 mg/kg, 2 mg/kg iv, 24 h, individual rats; read-out: Concentrations in Plasma of Rats after Intravenous Injection
readout.kind: concentration at 24 h (ng/mL)

Cc1ccc(Sc2ccccc2N2CCNCC2)c(C)c1 : 3.38
[2H]C([2H])([2H])c1ccc(Sc2ccccc2N2CCNCC2)c(C([2H])([2H])[2H])c1 : 3.38

====

Experiment: Pharmacokinetic test in rats, intravenous injection
Type: in vivo, SD rats
Settings: male, SD, rat, plasma, iv, 2 mg/kg, rats, iv 2 mg/kg, XX n = 4, YY n = 3; read-out: Cmax, Mean ± SD
readout.kind: Cmax (ng/mL)

1 = Cc1ccc(Sc2ccccc2N2CCNCC2)c(C)c1
2 = [2H]C([2H])([2H])c1ccc(Sc2ccccc2N2CCNCC2)c(C([2H])([2H])[2H])c1
Pick the one with the larger Cmax: 1 vs 2 Kindly state the label of the option you pick.
1

====

Test: Pharmacokinetic test in rats, intravenous injection
Assay type: in vivo, SD rats
Settings: male, SD, rat, plasma, intravenous, 2 mg/kg, 2 mg/kg iv, 12 h, individual rats; read-out: Concentrations in Plasma of Rats after Intravenous Injection
readout.kind: concentration at 12 h (ng/mL)

Cc1ccc(Sc2ccccc2N2CCNCC2)c(C)c1 : 8.44
[2H]C([2H])([2H])c1ccc(Sc2ccccc2N2CCNCC2)c(C([2H])([2H])[2H])c1 : 8.44

====

Test: Pharmacokinetic test in rats, gavage administration
Format: in vivo, SD rats
Conditions: both sexes, Sprague-Dawley, rat, plasma, oral, 20 mg/kg, 20 mg/kg oral, 12 h, individual rats 1-6; read-out: Concentrations in Plasma of Rats after Oral Administration
readout.kind: concentration at 12 h (ng/mL)
State just the number; it will be interpreted in ng/mL.

For [2H]C([2H])([2H])c1ccc(Sc2ccccc2N2CCNCC2)c(C([2H])([2H])[2H])c1 , what is its reported concentration at 12 h?
8.86

====

Assay: Pharmacokinetic test in rats, intravenous injection
Format: in vivo, SD rats
Conditions: male, SD, rat, plasma, intravenous, 2 mg/kg, 2 mg/kg iv, 0.05 h after administration, individual rats; read-out: Concentrations in Plasma of Rats after Intravenous Injection
readout.kind: concentration at 0.05 h (ng/mL)

[2H]C([2H])([2H])c1ccc(Sc2ccccc2N2CCNCC2)c(C([2H])([2H])[2H])c1 : 134
Cc1ccc(Sc2ccccc2N2CCNCC2)c(C)c1 : 134

====

Assay: Pharmacokinetic test in rats, intravenous injection
Type: in vivo, SD rats
Details: male, SD, rat, plasma, intravenous, 2 mg/kg, 2 mg/kg iv, 9 h, individual rats; read-out: Concentrations in Plasma of Rats after Intravenous Injection
readout.kind: concentration at 9 h (ng/mL)

[2H]C([2H])([2H])c1ccc(Sc2ccccc2N2CCNCC2)c(C([2H])([2H])[2H])c1 : 14.9
Cc1ccc(Sc2ccccc2N2CCNCC2)c(C)c1 : 14.9

====

Assay: Pharmacokinetic test in rats, intravenous injection
Assay type: in vivo, SD rats
Details: male, SD, rat, plasma, intravenous, 2 mg/kg, 2 mg/kg iv, 0.133 h, individual rats; read-out: Concentrations in Plasma of Rats after Intravenous Injection
readout.kind: concentration at 0.133 h (ng/mL)

[2H]C([2H])([2H])c1ccc(Sc2ccccc2N2CCNCC2)c(C([2H])([2H])[2H])c1 [XX] : 86.5
Cc1ccc(Sc2ccccc2N2CCNCC2)c(C)c1 [YY] : 86.5

====

Test: Pharmacokinetic test in rats, gavage administration
Format: in vivo, SD rats
Conditions: both sexes, Sprague-Dawley, rat, plasma, oral, 20 mg/kg, 20 mg/kg oral, 1.5 h, individual rats 1-6; read-out: Concentrations in Plasma of Rats after Oral Administration
readout.kind: concentration at 1.5 h (ng/mL)
State just the number; it will be interpreted in ng/mL.

For [2H]C([2H])([2H])c1ccc(Sc2ccccc2N2CCNCC2)c(C([2H])([2H])[2H])c1 , what is its reported concentration at 1.5 h?
73.4

====

Experiment: Pharmacokinetic test in rats, gavage administration
Assay type: in vivo, SD rats
Settings: both sexes, Sprague-Dawley, rat, plasma, oral, 20 mg/kg, 20 mg/kg oral, 8 h, individual rats 1-6; read-out: Concentrations in Plasma of Rats after Oral Administration
readout.kind: concentration at 8 h (ng/mL)
State just the number; it will be interpreted in ng/mL.

For [2H]C([2H])([2H])c1ccc(Sc2ccccc2N2CCNCC2)c(C([2H])([2H])[2H])c1 , what is its reported concentration at 8 h?
22.1

====

Test: Pharmacokinetic test in rats, intravenous injection
Format: in vivo, SD rats
Conditions: male, Sprague-Dawley, rat, plasma, intravenous, 2 mg/kg, 2 mg/kg iv, 1 h, mean; read-out: Concentrations in Plasma of Rats after Intravenous Injection, Mean ± SD
readout.kind: concentration at 1 h (ng/mL)

[2H]C([2H])([2H])c1ccc(Sc2ccccc2N2CCNCC2)c(C([2H])([2H])[2H])c1 [XX] : 69.9
Cc1ccc(Sc2ccccc2N2CCNCC2)c(C)c1 [YY] : 94.2

====

Assay: Pharmacokinetic test in rats, intravenous injection
Format: in vivo, SD rats
Details: male, Sprague-Dawley, rat, plasma, intravenous, 2 mg/kg, 2 mg/kg iv, 3 h, mean; read-out: Concentrations in Plasma of Rats after Intravenous Injection, Mean ± SD
Experimental: The preferred compound of the present disclosure was assessed in rats for its pharmacokinetic profile. SD rats, male and female, weighing 150 to 250 g Mobile phase: 10 mM ammonium formate aqueous solution:methanol=15:85 The ionization source was electrospray ionization source. The detection mode was positive mode. […] The ion reaction for the quantitative analysis was the following: m/z was 305.2\150.0 for XX, and 256.1\167.1 for diphenhydramine (the internal standard). […]
readout.kind: concentration at 3 h (ng/mL)

Cc1ccc(Sc2ccccc2N2CCNCC2)c(C)c1 : 67
[2H]C([2H])([2H])c1ccc(Sc2ccccc2N2CCNCC2)c(C([2H])([2H])[2H])c1 : 47.8

====

Test: Pharmacokinetic test in rats, intravenous injection
Type: in vivo, SD rats
Conditions: male, SD, rat, plasma, iv, 2 mg/kg, rats, iv 2 mg/kg, individual rats; read-out: Vz
readout.kind: Vd (L/kg)

[2H]C([2H])([2H])c1ccc(Sc2ccccc2N2CCNCC2)c(C([2H])([2H])[2H])c1 : 23
Cc1ccc(Sc2ccccc2N2CCNCC2)c(C)c1 : 26.3

====

Test: Pharmacokinetic test in rats, intravenous injection
Assay type: in vivo, SD rats
Conditions: male, SD, rat, plasma, intravenous, 2 mg/kg, 2 mg/kg iv, 0.133 h, mean; read-out: Concentrations in Plasma of Rats after Intravenous Injection, Mean ± SD
readout.kind: concentration at 0.133 h (ng/mL)

1 = [2H]C([2H])([2H])c1ccc(Sc2ccccc2N2CCNCC2)c(C([2H])([2H])[2H])c1
2 = Cc1ccc(Sc2ccccc2N2CCNCC2)c(C)c1
Compare concentration at 0.133 h: is it lower for 1 or for 2 ? Kindly state the label of the option you pick.
1
(1: 87.1 ng/mL, 2: 170 ng/mL)

====

Test: Pharmacokinetic test in rats, intravenous injection
Assay type: in vivo, SD rats
Settings: male, SD, rat, plasma, intravenous, 2 mg/kg, 2 mg/kg iv, 9 h, mean; read-out: Concentrations in Plasma of Rats after Intravenous Injection, Mean ± SD
Procedure: The preferred compound of the present disclosure was assessed in rats for its pharmacokinetic profile. SD rats, male and female, weighing 150 to 250 g Mobile phase: 10 mM ammonium formate aqueous solution:methanol=15:85 The ionization source was electrospray ionization source. The detection mode was positive mode. […] The ion reaction for the quantitative analysis was the following: m/z was 305.2\150.0 for XX, and 256.1\167.1 for diphenhydramine (the internal standard). […]
readout.kind: concentration at 9 h (ng/mL)

Cc1ccc(Sc2ccccc2N2CCNCC2)c(C)c1 : 19.5
[2H]C([2H])([2H])c1ccc(Sc2ccccc2N2CCNCC2)c(C([2H])([2H])[2H])c1 : 15.9

====

Assay: Pharmacokinetic test in rats, gavage administration
Type: in vivo, SD rats
Conditions: both sexes, Sprague-Dawley, rat, plasma, po, 20 mg/kg, rats, oral 20 mg/kg vs iv 2 mg/kg, n = 6; read-out: F % (absolute bioavailability), Mean ± SD
readout.kind: bioavailability (%)
State just the number; it will be interpreted in %.

For Cc1ccc(Sc2ccccc2N2CCNCC2)c(C)c1 , what is its reported bioavailability?
7.51

====

Test: Pharmacokinetic test in rats, gavage administration
Format: in vivo, SD rats
Details: both sexes, SD, rat, plasma, po, 20 mg/kg, rats, oral 20 mg/kg vs iv 2 mg/kg, individual rats 1-6; read-out: F %
readout.kind: bioavailability (%)
State just the number; it will be interpreted in %.

For [2H]C([2H])([2H])c1ccc(Sc2ccccc2N2CCNCC2)c(C([2H])([2H])[2H])c1 , what is its reported bioavailability?
11
